system: MCF-7 cells; experiment: MTT cytotoxicity assay, MCF-7; assay type: cell-based, human; settings: 48 h

COMPOUND | TARGET OR SYSTEM | IC50
CCCCN(CCCC)C[P+](c1ccccc1)(c1ccccc1)[Ir-3]([Cl])([Cl])[C]1(C)C(C)=C(C)C(C)=C1C | MCF-7 cells | 189 µM
CCN(CC)C[P+](c1ccccc1)(c1ccccc1)[Ir-3]([Cl])([Cl])[C]1(C)C(C)=C(C)C(C)=C1C | MCF-7 cells | 184 µM
N.N.[Cl][Pt][Cl] [Cisplatin, reference compound] | MCF-7 cells | 151 µM
CCNCC | MCF-7 cells | 352 µM
